Would you kindly list Papp A→B for each of these compounds?
# test.summary: Apparent permeability from the apical to basolateral side in MDCK cells
# Format: ADME, cell-based, Canis lupus familiaris
# measurement.setup: dog
// return numeric value only (unit: ×10⁻⁶ cm/s, not printed)

Sample CC1(C)OCc2c(Nc3n[nH]c4c(Cl)cccc34)nc(-c3cn[nH]c3)nc21 — what was its Papp A→B?
9.5

Sample CC1(C)OCc2c(Nc3n[nH]c4c(C(F)(F)F)cccc34)nc(-c3cn[nH]c3)nc21 — what was its Papp A→B?
8.5

Sample CC1(C)OCc2c(Nc3n[nH]c4cc(C(F)(F)F)ccc34)nc(-c3cn[nH]c3)nc21 — what was its Papp A→B?
10.3

Sample Cn1nccc1-c1nc(Nc2n[nH]c3ccccc23)c2c(n1)C(C)(C)OC2 — what was its Papp A→B?
12.9

Sample CC1(C)OCc2c(Nc3n[nH]c4c(Cl)cccc34)nc(-c3cn[nH]c3C(F)F)nc21 — what was its Papp A→B?
8.4

Sample CC1(C)OCc2c(Nc3n[nH]c4ccccc34)nc(-c3cn[nH]c3)nc21 — what was its Papp A→B?
6.7

Sample CC1(C)OCc2c(Nc3n[nH]c4c(Cl)c(F)ccc34)nc(-c3cn[nH]c3)nc21 — what was its Papp A→B?
7.3

----------
Would you kindly list AUC for each of these compounds?
# test.summary: Total AUC in rat at 5 mg/kg, po
# Format: ADME, organism-based
# Design: dose 5 mg/kg, time AUCmax, route oral
# measurement.setup: in vivo
// return numeric value only (unit: µM·h, not printed)

Sample Cn1nccc1-c1nc(Nc2n[nH]c3ccccc23)c2c(n1)C(C)(C)OC2 — what was its AUC?
7.5

Sample CC1(C)OCc2c(Nc3n[nH]c4c(Cl)cccc34)nc(-c3cn[nH]c3C(F)F)nc21 — what was its AUC?
3.4

Sample CC1(C)OCc2c(Nc3n[nH]c4ccccc34)nc(-c3cn[nH]c3)nc21 — what was its AUC?
0.37

Sample CC1(C)OCc2c(Nc3n[nH]c4c(C(F)(F)F)cccc34)nc(-c3cn[nH]c3)nc21 — what was its AUC?
0.36

----------
# system.name: Epidermal growth factor receptor (Homo sapiens, UniProt P00533)
# Sequence (P00533 whole entry): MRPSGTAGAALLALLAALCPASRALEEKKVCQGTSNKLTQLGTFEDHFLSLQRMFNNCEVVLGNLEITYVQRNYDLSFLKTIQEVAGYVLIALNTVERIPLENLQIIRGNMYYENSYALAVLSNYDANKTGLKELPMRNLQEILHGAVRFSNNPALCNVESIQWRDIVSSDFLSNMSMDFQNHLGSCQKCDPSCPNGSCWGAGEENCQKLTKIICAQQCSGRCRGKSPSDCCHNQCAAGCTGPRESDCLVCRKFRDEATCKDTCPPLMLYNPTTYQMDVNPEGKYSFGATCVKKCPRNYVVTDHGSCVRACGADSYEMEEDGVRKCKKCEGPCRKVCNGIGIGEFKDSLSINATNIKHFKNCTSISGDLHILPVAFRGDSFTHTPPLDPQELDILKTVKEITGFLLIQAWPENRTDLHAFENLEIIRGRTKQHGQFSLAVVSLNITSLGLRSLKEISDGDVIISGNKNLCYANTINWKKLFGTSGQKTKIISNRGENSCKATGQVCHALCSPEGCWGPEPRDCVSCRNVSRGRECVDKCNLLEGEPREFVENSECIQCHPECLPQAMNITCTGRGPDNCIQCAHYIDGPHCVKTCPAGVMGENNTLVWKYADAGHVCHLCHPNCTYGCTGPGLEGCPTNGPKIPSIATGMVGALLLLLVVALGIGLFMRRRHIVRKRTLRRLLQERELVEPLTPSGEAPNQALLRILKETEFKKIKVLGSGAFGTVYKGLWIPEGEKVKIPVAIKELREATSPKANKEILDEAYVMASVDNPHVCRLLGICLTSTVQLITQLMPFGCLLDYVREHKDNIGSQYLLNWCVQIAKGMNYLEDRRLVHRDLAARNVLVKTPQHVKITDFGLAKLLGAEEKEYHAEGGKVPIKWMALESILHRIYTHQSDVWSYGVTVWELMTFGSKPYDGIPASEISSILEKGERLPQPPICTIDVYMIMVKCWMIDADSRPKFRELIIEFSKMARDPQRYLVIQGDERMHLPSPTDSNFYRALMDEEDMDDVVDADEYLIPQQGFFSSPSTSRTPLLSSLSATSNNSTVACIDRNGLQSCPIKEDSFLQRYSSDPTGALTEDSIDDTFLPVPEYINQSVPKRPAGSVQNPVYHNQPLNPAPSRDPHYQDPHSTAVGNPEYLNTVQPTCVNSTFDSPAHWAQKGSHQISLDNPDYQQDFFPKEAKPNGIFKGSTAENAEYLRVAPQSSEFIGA
# test.summary: Inhibition of wild type EGFR (unknown origin)
Would you kindly list pKi for each of these compounds?
Answer as the number alone; pKi is minus log10 of concentration in mol/L.

Sample CC1(C)OCc2c(Nc3n[nH]c4c(Cl)cccc34)nc(-c3cn[nH]c3)nc21 — what was its pKi?
8.82

Sample Cn1nccc1-c1nc(Nc2n[nH]c3ccccc23)c2c(n1)C(C)(C)OC2 — what was its pKi?
8.96

Sample CC1(C)OCc2c(Nc3n[nH]c4ccccc34)nc(-c3cn[nH]c3)nc21 — what was its pKi?
9.22

Sample CC1(C)OCc2c(Nc3n[nH]c4c(Cl)cccc34)nc(-c3cn[nH]c3C(F)F)nc21 — what was its pKi?
8.19

----------
# test.summary: Oral bioavailability in rat at 5 mg/kg
# Assay type: ADME, organism-based
# measurement.setup: in vivo
measurement.name: bioavailability (%)
// return numeric value only (unit: %, not printed)

Sample Cn1nccc1-c1nc(Nc2n[nH]c3ccccc23)c2c(n1)C(C)(C)OC2 — what was its bioavailability?
117

Sample CC1(C)OCc2c(Nc3n[nH]c4c(C(F)(F)F)cccc34)nc(-c3cn[nH]c3)nc21 — what was its bioavailability?
5

Sample CC1(C)OCc2c(Nc3n[nH]c4ccccc34)nc(-c3cn[nH]c3)nc21 — what was its bioavailability?
13

Sample CC1(C)OCc2c(Nc3n[nH]c4c(Cl)cccc34)nc(-c3cn[nH]c3C(F)F)nc21 — what was its bioavailability?
62

----------
Would you kindly list fAUC for each of these compounds?
# Tested on: Rattus norvegicus
# test.summary: Unbound AUC in rat at 5 mg/kg, po
# Assay type: ADME, organism-based
# measurement.setup: in vivo
// return numeric value only (unit: µM·h, not printed)

Sample CC1(C)OCc2c(Nc3n[nH]c4c(C(F)(F)F)cccc34)nc(-c3cn[nH]c3)nc21 — what was its fAUC?
0.03

Sample CC1(C)OCc2c(Nc3n[nH]c4ccccc34)nc(-c3cn[nH]c3)nc21 — what was its fAUC?
0.05

Sample Cn1nccc1-c1nc(Nc2n[nH]c3ccccc23)c2c(n1)C(C)(C)OC2 — what was its fAUC?
0.23

Sample CC1(C)OCc2c(Nc3n[nH]c4c(Cl)cccc34)nc(-c3cn[nH]c3C(F)F)nc21 — what was its fAUC?
0.09

----------
# system.name: Epidermal growth factor receptor (Homo sapiens, UniProt P00533, L858R/T790M)
# Sequence (P00533 25-1210 T790M/L858R limits assumed): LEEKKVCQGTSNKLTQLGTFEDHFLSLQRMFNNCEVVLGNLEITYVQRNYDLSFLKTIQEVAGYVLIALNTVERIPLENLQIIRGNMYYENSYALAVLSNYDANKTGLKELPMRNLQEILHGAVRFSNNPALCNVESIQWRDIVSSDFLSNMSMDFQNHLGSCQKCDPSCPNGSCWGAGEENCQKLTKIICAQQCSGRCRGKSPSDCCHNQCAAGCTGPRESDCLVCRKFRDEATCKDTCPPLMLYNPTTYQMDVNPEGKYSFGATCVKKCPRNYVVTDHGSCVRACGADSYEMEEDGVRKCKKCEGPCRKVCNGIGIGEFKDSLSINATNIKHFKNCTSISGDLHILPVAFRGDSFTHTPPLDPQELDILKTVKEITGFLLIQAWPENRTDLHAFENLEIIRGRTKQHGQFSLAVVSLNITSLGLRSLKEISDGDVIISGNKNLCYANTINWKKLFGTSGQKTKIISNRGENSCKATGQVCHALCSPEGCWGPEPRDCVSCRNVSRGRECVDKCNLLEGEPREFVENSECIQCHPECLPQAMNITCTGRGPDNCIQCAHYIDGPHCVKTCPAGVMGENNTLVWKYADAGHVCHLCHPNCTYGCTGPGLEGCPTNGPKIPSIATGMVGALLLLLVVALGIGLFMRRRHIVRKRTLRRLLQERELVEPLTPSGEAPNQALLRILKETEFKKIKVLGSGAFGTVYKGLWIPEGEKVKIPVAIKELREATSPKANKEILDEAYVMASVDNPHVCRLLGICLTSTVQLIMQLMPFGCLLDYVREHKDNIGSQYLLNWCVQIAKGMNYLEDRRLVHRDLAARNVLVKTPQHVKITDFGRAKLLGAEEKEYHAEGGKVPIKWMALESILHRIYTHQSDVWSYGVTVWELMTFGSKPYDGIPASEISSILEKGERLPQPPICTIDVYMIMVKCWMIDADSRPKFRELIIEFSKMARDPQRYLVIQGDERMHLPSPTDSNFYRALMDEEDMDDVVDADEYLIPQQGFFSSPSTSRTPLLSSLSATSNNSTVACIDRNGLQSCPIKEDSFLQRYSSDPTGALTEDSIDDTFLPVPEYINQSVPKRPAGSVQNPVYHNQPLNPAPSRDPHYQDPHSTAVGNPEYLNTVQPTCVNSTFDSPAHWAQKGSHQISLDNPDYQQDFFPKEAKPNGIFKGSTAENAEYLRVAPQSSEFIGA
# test.summary: Inhibition of EGFR T790M/L858R mutant (unknown origin)
Would you kindly list Ki for each of these compounds?
// return numeric value only (unit: nM, not printed)

Sample CC1(C)OCc2c(Nc3n[nH]c4c(Cl)c(F)ccc34)nc(-c3cn[nH]c3)nc21 — what was its Ki?
4

Sample CC1(C)OCc2c(Nc3n[nH]c(Cl)c3Cl)nc(-c3cn[nH]c3)nc21 — what was its Ki?
389

Sample CC1(C)OCc2c(Nc3n[nH]c4cc(Cl)ccc34)nc(-c3cn[nH]c3)nc21 — what was its Ki?
22.4

Sample CC1(C)OCc2c(Nc3n[nH]c4c(F)cc(F)cc34)nc(-c3cn[nH]c3)nc21 — what was its Ki?
10.4

Sample CC1(C)OCc2c(C(=O)c3n[nH]c4ccccc34)nc(-c3cn[nH]c3)nc21 — what was its Ki?
104

Sample CC1(C)OCc2c(Nc3n[nH]c4c(Cl)cccc34)nc(-c3cn[nH]c3C(F)F)nc21 — what was its Ki?
9

Sample CC1(C)OCc2c(Nc3n[nH]c4ccccc34)nc(-c3cscn3)nc21 — what was its Ki?
5.6

Sample Cc1cc(Nc2nc(-c3cn[nH]c3)nc3c2COC3(C)C)n[nH]1 — what was its Ki?
844

Sample CC1(C)OCc2c(Nc3n[nH]c4ccccc34)nc(-c3c[nH]nn3)nc21 — what was its Ki?
732

Sample Cn1nc(Nc2nc(-c3cn[nH]c3)nc3c2COC3(C)C)c2cccc(F)c21 — what was its Ki?
57

Sample CC1(C)OCc2c(Oc3n[nH]c4ccccc34)nc(-c3cn[nH]c3)nc21 — what was its Ki?
85

Sample CC1(C)OCc2c(Nc3n[nH]c4c(C(F)(F)F)cccc34)nc(-c3cn[nH]c3)nc21 — what was its Ki?
134

Sample CC1(C)OCc2c(Nc3n[nH]c4ccccc34)nc(-c3cc[nH]n3)nc21 — what was its Ki?
175

Sample CC1(C)OCc2c(Nc3n[nH]c4ccccc34)nc(-c3cn[nH]c3)nc21 — what was its Ki?
2

Sample CC1(C)OCc2c(Nc3n[nH]c4ccc(F)cc34)nc(-c3cn[nH]c3)nc21 — what was its Ki?
8

Sample CC1(C)OCc2c(Nc3n[nH]c4c(Cl)cc(F)cc34)nc(-c3cn[nH]c3)nc21 — what was its Ki?
16

Sample CC1(C)OCc2c(Nc3n[nH]c4c(Cl)cccc34)nc(-c3cn[nH]c3)nc21 — what was its Ki?
2

----------
# test.summary: Plasma clearance in iv dosed rat
# Format: ADME, organism-based
measurement.name: clearance (mL/min/kg)
// return numeric value only (unit: mL/min/kg, not printed)

Sample CC1(C)OCc2c(Nc3n[nH]c4cc(C(F)(F)F)ccc34)nc(-c3cn[nH]c3)nc21 — what was its clearance?
91

Sample Cn1nc(Nc2nc(-c3cn[nH]c3)nc3c2COC3(C)C)c2cccc(F)c21 — what was its clearance?
60

Sample CC1(C)OCc2c(Nc3n[nH]c4ccc(F)cc34)nc(-c3cn[nH]c3)nc21 — what was its clearance?
81

Sample CC1(C)OCc2c(Nc3n[nH]c4c(C(F)(F)F)cccc34)nc(-c3cn[nH]c3)nc21 — what was its clearance?
27

Sample CC1(C)OCc2c(Nc3n[nH]c4c(Cl)cccc34)nc(-c3cn[nH]c3)nc21 — what was its clearance?
74

Sample CC1(C)OCc2c(Nc3n[nH]c4ccccc34)nc(-c3cn[nH]c3)nc21 — what was its clearance?
86

Sample Cn1nccc1-c1nc(Nc2n[nH]c3ccccc23)c2c(n1)C(C)(C)OC2 — what was its clearance?
38

Sample CC1(C)OCc2c(Nc3n[nH]c4c(Cl)cccc34)nc(-c3cn[nH]c3C(F)F)nc21 — what was its clearance?
36

Sample CC1(C)OCc2c(Nc3n[nH]c4c(Cl)c(F)ccc34)nc(-c3cn[nH]c3)nc21 — what was its clearance?
60

----------
# test.summary: Volume of distribution at steady state in rat
# Format: ADME, organism-based
# measurement.setup: in vivo, read-out: Vdss
measurement.name: Vd (L/kg)
// return numeric value only (unit: L/kg, not printed)

Sample Cn1nccc1-c1nc(Nc2n[nH]c3ccccc23)c2c(n1)C(C)(C)OC2 — what was its Vd?
2.3

Sample CC1(C)OCc2c(Nc3n[nH]c4c(C(F)(F)F)cccc34)nc(-c3cn[nH]c3)nc21 — what was its Vd?
2.4

Sample CC1(C)OCc2c(Nc3n[nH]c4c(Cl)cccc34)nc(-c3cn[nH]c3C(F)F)nc21 — what was its Vd?
3.3

Sample CC1(C)OCc2c(Nc3n[nH]c4c(Cl)c(F)ccc34)nc(-c3cn[nH]c3)nc21 — what was its Vd?
5.5

This collection of values is drawn from ChEMBL document CHEMBL3758169.
